Experiment: Confirmation screen for delayed death inhibitors of the malarial parasite plastid, 96 hour incubation; note: nearly all actives have a fitted effect of over 60% in size
Conditions: P. falciparum luciferase growth in erythrocytes; series mostly up to 28.7 µM
In all, about 2,300 compounds went through this assay and about 1,400 (61%) were called active. About 29% were inconclusive and are not listed. Calls come from the whole dose curve; as a rule, active = well fitted inhibition curve with a large enough effect; inconclusive = small, poorly fitted or top-dose-only effect, or effect the other way; inactive = no such curve, though single readings can be large or run the other way. So high a share suggests a set chosen from earlier hits. Some of the results follow.
Hi! Could you answer with just one of these? active, inactive

| compound | label class |
| --- | --- |
| Cc1ccc(NC2=CC(=O)CC(C)(C)C2)cc1Cl | active |
| O=C(Nc1ccc(F)cc1)c1ccc(CN2CCc3ccccc3C2)cc1 | active |
| O=C(COC(=O)c1ccc(F)c(S(=O)(=O)N2CCOCC2)c1)Nc1ccc2[nH]c(=O)[nH]c2c1 | inactive |

For the next question, use this compound.
Enquiry: Given "Cc1ccc(C(=O)NC2CCCCC2)cc1S(=O)(=O)N1CCCC1" , state the outcome it received in this test.
Return: active
